- tested on: protein-protein interaction between Kras and SOS1 (biotin-tagged human Kras loaded with GDP, His-tagged human SOS1) (Homo sapiens (Human), UniProt P01116, G12D)
- method description: Protein-protein interaction inhibition between Kras and SOS1 (KrasG12D-SOS PPI) using AlphaScreen;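 further: kras produced in E. coli, Ni-coupled donor beads and streptavidin acceptor beads, excitation 680 nm with emission detected at 520–620 nm via singlet oxygen transfer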
- Assay type: biochemical
- protocol conditions: AlphaScreen; biotin-tagged human Kras loaded with GDP, His-tagged human SOS1; read-out: KRAS G12D-SOS PPI IC50
pIC50: −log10 of the molar value. Numbered stars: 1 amine (or outer) side, 2 acyl side, 3 side chain; on linkers, the order of the positions; unused ones are H or OH. Bridge positions count the residues as written; N and C are the ends. Square brackets hold non-standard residues; d marks the D form. Peptide text beside a SMILES is read from it. * marks the point of attachment. hPhe(3-Cl-4-CF3) = N[C@@H](CCc1ccc(C(F)(F)F)c(Cl)c1)C(=O)O; NEtPhe(4-CF3) = CCN[C@@H](Cc1ccc(C(F)(F)F)cc1)C(=O)O; NMePhe(4-Cl) = CN[C@@H](Cc1ccc(Cl)cc1)C(=O)O; X30 = O=C([C@H](CCc1ccc(Cl)cc1F)N[*:1])[*:2]; NMedβ3hAla = C[C@H](CC(=O)[*:2])N(C)[*:1]; NMeGly(cPent) = CN[C@H](C(=O)O)C1CCCC1; NMe3Pal = CN[C@@H](Cc1cccnc1)C(=O)O; NMeCha = CN[C@@H](CC1CCCCC1)C(=O)O; Hyp = O=C(O)[C@@H]1C[C@@H](O)CN1; NMeChg = CN[C@H](C(=O)O)C1CCCCC1; NMeF = CN[C@@H](Cc1ccccc1)C(=O)O; NMeD = CN[C@@H](CC(=O)O)C(=O)O; NMeL = CN[C@@H](CC(C)C)C(=O)O; d(β3hA) = C[C@@H](N)CC(=O)O; NMeA = CN[C@@H](C)C(=O)O; Piperidide = C1CCN(*)CC1; Ac5c = NC1(C(=O)O)CCCC1; Aze = O=C(O)[C@@H]1CCN1; Sar = CNCC(=O)O
Rule: pIC50 of 8 or more gives yes; anything lower gives no.

>  <compound>
CC[C@H](C)[C@@H]1NC(=O)[C@H](C)N(C)C(=O)C[C@@H](C)NC(=O)[C@H](CC(C)C)N(C)C(=O)[C@H](Cc2ccccc2)N(C)C(=O)[C@H](CC(C)C)NC(=O)[C@H](CCc2ccc(Cl)cc2F)NC(=O)CN(C)C(=O)[C@H](Cc2ccc(Cl)cc2)N(C)C(=O)CN(C)C(=O)CN(C)C1=O [Compound 2086] (cyclo(I[Sar][Sar][NMePhe(4-Cl)][Sar][X30]L[NMeF][NMeL][d(β3hA)][NMeA]))

>  <assigned class>
no

$$$$
>  <compound>
CCO[C@@H]1C[C@H]2C(=O)NC3(CCCC3)C(=O)N(C)[C@@H](C3CCCC3)C(=O)N(C)[C@H](C)CC(=O)N(C)[C@@H](CC(C)C)C(=O)N[C@@H]([C@@H](C)CC)C(=O)N(C)[C@@H](C)C(=O)N3CC[C@H]3C(=O)N(CC)[C@@H](Cc3ccc(C(F)(F)F)cc3)C(=O)N(C)CC(=O)N[C@@H](CCc3ccc(C(F)(F)F)c(Cl)c3)C(=O)N2C1 [Compound 816] (cyclo([Ac5c][NMeGly(cPent)][NMedβ3hAla][NMeL]I[NMeA][Aze][NEtPhe(4-CF3)][Sar][hPhe(3-Cl-4-CF3)][Hyp](Et)))

>  <assigned class>
yes

$$$$
>  <compound>
CC[C@H](C)[C@@H]1NC(=O)[C@H](CC(C)C)N(C)C(=O)C[C@@H](C)N(C)C(=O)[C@H](C2CCCCC2)N(C)C(=O)C2(CCCC2)NC(=O)[C@H](Cc2cccnc2)N(C)C(=O)[C@H](CCc2ccc(C(F)(F)F)c(Cl)c2)NC(=O)CN(C)C(=O)[C@H](CC2CCCCC2)N(C)C(=O)CN(C)C(=O)CN(C)C1=O [Compound 1849] (cyclo([Ac5c][NMeChg][NMedβ3hAla][NMeL]I[Sar][Sar][NMeCha][Sar][hPhe(3-Cl-4-CF3)][NMe3Pal]))

>  <assigned class>
no

$$$$
>  <compound>
CC[C@H](C)[C@@H]1NC(=O)[C@H](CC(C)C)N(C)C(=O)C[C@@H](C(=O)N2CCCCC2)N(C)C(=O)[C@H](C2CCCC2)N(C)C(=O)C2(CCCC2)NC(=O)[C@@H]2CCCN2C(=O)[C@H](CCc2ccc(C(F)(F)F)c(Cl)c2)NC(=O)CN(C)C(=O)[C@H](Cc2ccc(Cl)cc2)N(C)C(=O)[C@@H]2CCN2C(=O)[C@H](C)N(C)C1=O [Compound 120] ([NMeL]I[NMeA][Aze][NMePhe(4-Cl)][Sar][hPhe(3-Cl-4-CF3)]P[Ac5c][NMeGly(cPent)][NMeD]-Piperidide; lactam N-11)

>  <assigned class>
yes

$$$$

Taken from patent US20240148821A1.
